Ref: ChEMBL document CHEMBL1144697

Below: a set of entries, each annotated with reported log10 IC50.
assayed_system: Glycogen synthase kinase-3 (Homo sapiens, UniProt P49840+P49841)
test_summary: Inhibition of GSK3alpha/beta in pig brain
Parameters: species or system Sus scrofa
applied_conditions: target entry is the homologue from another species
log10 IC50, nM

Given the entry COc1ccc2[nH]c3c(c2c1)CC(=O)Nc1cccnc1-3 , report its measured log10 IC50. 2.90

====

Below: a set of entries, each annotated with reported IC50.
assayed_system: Glycogen synthase kinase-3 (Homo sapiens, UniProt P49840+P49841)
test_summary: Inhibition of GSK3alpha/beta in pig brain
Parameters: species or system Sus scrofa
applied_conditions: target entry is the homologue from another species
Value expressed in µM; do not type the unit.

// worked examples, IC50 included
Given the entry O=C1Cc2c(n(Cc3ccccc3)c3ccccc23)-c2cnccc2N1 , report its measured IC50. 0.41

Given the entry Cn1c2c(c3ccccc31)CC(=O)Nc1cccnc1-2 , report its measured IC50. 1

Further cases:
Given the entry O=C1Cc2c([nH]c3cc(Cl)cc(Cl)c23)-c2ncccc2N1 , report its measured IC50. 0.8

Given the entry O=C1Cc2c(n3c4c(cccc24)CC3)-c2ncccc2N1 , report its measured IC50. 0.41

Given the entry O=C1Cc2c([nH]c3ccc(I)cc23)-c2ncccc2N1 , report its measured IC50. 0.025

Given the entry O=C1Cc2c([nH]c3ccc(C(=O)O)cc23)-c2ncccc2N1 , report its measured IC50. 100

Given the entry O=C1Cc2c([nH]c3ccc(C(F)(F)F)cc23)-c2cnccc2N1 , report its measured IC50. 0.013

Given the entry O=C1Cc2c([nH]c3ccc(Cl)cc23)-c2ncccc2N1 , report its measured IC50. 0.063

Given the entry O=C1Cc2c([nH]c3c(F)cc(F)cc23)-c2ncccc2N1 , report its measured IC50. 1.8

====

assayed_system: Glycogen synthase kinase-3 (Homo sapiens, UniProt P49840+P49841)
test_summary: Inhibition of GSK3alpha/beta in pig brain
Design: species or system Sus scrofa
applied_conditions: target entry is the homologue from another species
IC50 strictly less than 800 nM = yes (1). Otherwise no (0).

Below are worked cases with known answers.
Hello, is IC50 of the following compound strictly smaller than 800 nM? N#Cc1ccc2[nH]c3c(c2c1)CC(=O)Nc1ccc(Br)nc1-3 no (0)

Hello, is IC50 of the following compound strictly smaller than 800 nM? O=C1Cc2c([nH]c3ccc(F)cc23)-c2ncccc2N1 yes (1)

Hello, is IC50 of the following compound strictly smaller than 800 nM? O=C1Cc2c(n(Cc3ccccc3)c3ccccc23)-c2ncccc2N1 no (0)

Hello, is IC50 of the following compound strictly smaller than 800 nM? Cc1ccc2[nH]c3c(c2c1)CC(=O)Nc1cccnc1-3 yes (1)

Hello, is IC50 of the following compound strictly smaller than 800 nM? O=C1Cc2c([nH]c3ccc(C(F)(F)F)cc23)-c2ncccc2N1 yes (1)

Hello, is IC50 of the following compound strictly smaller than 800 nM? O=C1Cc2c(oc3ccc(Br)cc23)-c2ccccc2N1 no (0)

Further cases:
Hello, is IC50 of the following compound strictly smaller than 800 nM? COc1ccc2[nH]c3c(c2c1)CC(=O)Nc1ccncc1-3 yes (1)

Hello, is IC50 of the following compound strictly smaller than 800 nM? O=C1Cc2c(oc3ccc(Cl)cc23)-c2ccccc2N1 no (0)

Hello, is IC50 of the following compound strictly smaller than 800 nM? CCn1c2c(c3ccccc31)CC(=O)Nc1cccnc1-2 no (0)

Hello, is IC50 of the following compound strictly smaller than 800 nM? O=C1Cc2c([nH]c3ccc(Br)cc23)-c2cnccc2N1 yes (1)

Hello, is IC50 of the following compound strictly smaller than 800 nM? O=C1Cc2c([nH]c3ccc(O)cc23)-c2ncccc2N1 no (0)
